Test system: Human gammaherpesvirus 4
Assay: Antiviral activity against EBV infected in TPA and sodium butyrate-induced P3HR1 cells assessed as inhibition on EBV lytic replication incubated for 48 hrs by SYBR green dye based real-time PCR method
Assay type: functional, organism-based
Settings: human gammaherpesvirus 4, P3HR-1, 48 h
ENDPOINT NAME: EC50 (µM)

EC50 value, target or system Human gammaherpesvirus 4, for CC1=CCC[C@H]2[C@@]1(C)[C@@H](OC(=O)c1ccccc1)[C@H](O)[C@](C)(O)[C@]2(C)/C=C/C1=CC(=O)OC1 : 9.1

[A] CC1=CCC[C@H]2[C@@]1(C)[C@@H](OC(=O)c1ccccc1)[C@H](O)[C@]1(C)O[C@]3(COC(=O)[C@@H]3O)C[C@H](OC(=O)c3ccccc3)[C@]21C
[B] CC(=O)OC(C(=O)O[C@H]1[C@H](OC(=O)c2cccnc2)[C@@]2(C)C(C)=CCC[C@@H]2[C@@](C)(/C=C/C2=CC(=O)OC2)[C@@]1(C)O)C(C)C (stereo partly specified)
[C] CC(=O)OC(C(=O)O[C@H]1[C@H](OC(=O)c2ccccc2)[C@@]2(C)C(C)=CCC[C@@H]2[C@@](C)(/C=C/C2=CC(=O)OC2)[C@@]1(C)O)C(C)C (stereo partly specified)
[D] CC1=CCC[C@H]2[C@@]1(C)[C@@H](OC(=O)c1ccccc1)[C@H](OC(=O)C(C)C)[C@](C)(O)[C@]2(C)/C=C/C1=CC(=O)OC1
Ordering criterion: EC50; begin with the maximum. Answer by naming the labels in the order asked. B, D, A, C

====

Experiment: Cytotoxicity against human P3HR1 cells assessed as reduction in cell viability incubated for 48 hrs by trypan blue dye exclusion assay
Type: cell-based, P3HR-1
ENDPOINT NAME: CC50 at 48 h (µM)
Quick reminder: number only, in µM, skip the unit.

Worked cases, CC50 at 48 h given:
Given item CC1=CCC[C@H]2[C@@]1(C)[C@@H](OC(=O)c1ccccc1)[C@H](OC(=O)c1cccnc1)[C@](C)(O)[C@]2(C)/C=C/C1=CC(=O)OC1 , the value recorded as its CC50 at 48 h is 1440

Given item CC(=O)O[C@@H](CC1=CC(=O)OC1)[C@]1(C)[C@H]2CCC=C(C)[C@]2(C)[C@@H](OC(=O)c2ccccc2)[C@H](O)[C@]1(C)O , the value recorded as its CC50 at 48 h is 37.8

Given item CC1=CCC[C@H]2[C@@]1(C)[C@@H](OC(=O)c1ccccc1)[C@H](O)[C@]1(C)O[C@]3(COC(=O)C3)C[C@H](OC(=O)c3ccccc3)[C@]21C , the value recorded as its CC50 at 48 h is 66.5

Given item CC(=O)OC(C(=O)O[C@H]1[C@H](OC(=O)c2cccnc2)[C@@]2(C)C(C)=CCC[C@@H]2[C@@](C)(/C=C/C2=CC(=O)OC2)[C@@]1(C)O)C(C)C (some centres not stated) , the value recorded as its CC50 at 48 h is 307

Given item CC1=CCC[C@H]2[C@@]1(C)[C@@H](OC(=O)c1ccccc1)[C@H](O)[C@](C)(O)[C@]2(C)/C=C/C1=CC(=O)OC1 , the value recorded as its CC50 at 48 h is 68.3

Next:
Given item CC(=O)O[C@H]1[C@H](OC(=O)c2cccnc2)[C@@]2(C)C(C)=CC[C@@H](OC(=O)c3cccnc3)[C@@H]2[C@@]2(C)CC[C@]3(COC(=O)C3)O[C@@]12C , the value recorded as its CC50 at 48 h is 1790

Given item CC(=O)O[C@H]1[C@H](OC(C)=O)[C@]2(C)O[C@]3(CC[C@]2(C)[C@H]2[C@H](OC(=O)c4ccccc4)CC=C(C)[C@]12C)COC(=O)C3 , the value recorded as its CC50 at 48 h is 738

Given item CC1=CCC[C@H]2[C@@]1(C)[C@@H](OC(=O)c1ccccc1)[C@H](O)[C@]1(C)O[C@]3(COC(=O)[C@@H]3O)C[C@H](OC(=O)c3ccccc3)[C@]21C , the value recorded as its CC50 at 48 h is 15.1

Given item CC1=CCC[C@H]2[C@@]1(C)[C@@H](OC(=O)c1ccccc1)[C@H](OC(=O)c1ccccc1)[C@](C)(O)[C@]2(C)/C=C/C1=CC(=O)OC1 , the value recorded as its CC50 at 48 h is 30

Given item CC1=CCC[C@H]2[C@@]1(C)[C@@H](OC(=O)c1ccccc1)[C@H](OC(=O)C(C)C)[C@](C)(O)[C@]2(C)/C=C/C1=CC(=O)OC1 , the value recorded as its CC50 at 48 h is 49.7

Given item CC(=O)OC(C(=O)O[C@H]1[C@H](OC(=O)c2ccccc2)[C@@]2(C)C(C)=CCC[C@@H]2[C@@](C)(/C=C/C2=CC(=O)OC2)[C@@]1(C)O)C(C)C (some centres not stated) , the value recorded as its CC50 at 48 h is 148

====

Assay: Selectivity index, ratio of CC50 for human P3HR1 cells to EC50 for EBV infected in TPA and sodium butyrate-induced P3HR1 cells
Parameters: species or system P3HR-1
ENDPOINT NAME: Ratio CC50/EC50
Could you keep your reply to the number by itself?

Worked cases, Ratio CC50/EC50 given:
Given item CC(=O)O[C@@H](CC1=CC(=O)OC1)[C@]1(C)[C@H]2CCC=C(C)[C@]2(C)[C@@H](OC(=O)c2ccccc2)[C@H](O)[C@]1(C)O , the value recorded as its Ratio CC50/EC50 is 4.3

Given item CC1=CCC[C@H]2[C@@]1(C)[C@@H](OC(=O)c1ccccc1)[C@H](O)[C@](C)(O)[C@]2(C)/C=C/C1=CC(=O)OC1 , the value recorded as its Ratio CC50/EC50 is 7.5

Given item CC(=O)OC(C(=O)O[C@H]1[C@H](OC(=O)c2ccccc2)[C@@]2(C)C(C)=CCC[C@@H]2[C@@](C)(/C=C/C2=CC(=O)OC2)[C@@]1(C)O)C(C)C (stereo partly specified) , the value recorded as its Ratio CC50/EC50 is 46.1

Given item CC1=CCC[C@H]2[C@@]1(C)[C@@H](OC(=O)c1ccccc1)[C@H](O)[C@]1(C)O[C@]3(COC(=O)C3)C[C@H](OC(=O)c3ccccc3)[C@]21C , the value recorded as its Ratio CC50/EC50 is 3.6

Next:
Given item CC(=O)OC(C(=O)O[C@H]1[C@H](OC(=O)c2cccnc2)[C@@]2(C)C(C)=CCC[C@@H]2[C@@](C)(/C=C/C2=CC(=O)OC2)[C@@]1(C)O)C(C)C (stereo partly specified) , the value recorded as its Ratio CC50/EC50 is 16.4

Given item CC1=CCC[C@H]2[C@@]1(C)[C@@H](OC(=O)c1ccccc1)[C@H](OC(=O)c1ccccc1)[C@](C)(O)[C@]2(C)/C=C/C1=CC(=O)OC1 , the value recorded as its Ratio CC50/EC50 is 2.1
